# Tested on: A549 NSCLC
# method.summary: NCI tumour cell line growth inhibition, 48 h
Consider the following compounds; for each one, report its TGI.

Q: # TGI lookup, item `COc1cc2ccc1OCc1cccc(n1)COc1ccc(cc1OC)C=NCCNCCNCCN=C2`
Ans: > 100 µM

Q: // returns reported TGI for input `CCOC(=O)/C(=C/c1ccc(N(CCC#N)CCC#N)cc1C)NC(=O)/C=C/c1ccccc1`
Ans: > 100 µM

Q: I'd like to know its TGI. The compound in question is `COC(=O)/C=c1\s/c(=C\C(=O)OC)c2ccccc12`
Ans: > 100 µM

Q: Entry under review: `C=C1C(=O)O[C@H]2[C@H]1CC/C(COC(=O)NCCc1c[nH]c3ccc(Cl)cc13)=C\CC[C@@]1(C)O[C@@H]21` . Reported TGI?
Ans: 5.84 µM

Q: Form field: reported TGI of `C[C@@H]1COCCN1c1cc(C2([S@@](C)(=N)=O)CC2)nc(-c2ccnc3[nH]ccc23)n1`
Ans: > 100 µM

Q: What value of TGI has been reported for the following compound? `COc1cc(NC=C2C(=O)OC(C)(C)OC2=O)c(OC)c(C)c1OC`
Ans: > 100 µM

Q: Data request, read-out TGI, for `CCOC(=O)CN1CC(C2=C(O)CN(CC(=O)OCC)C2=O)=CC1=O`
Ans: > 100 µM

Q: Give its TGI value. Item: `Cc1ccc(-c2nc(-c3cn(C)c4ncccc34)cs2)cc1`
Ans: 21.3 µM

Q: What does the record list as TGI for `CCCC1(CCC)c2cc(/C=N\O)ccc2-c2ccc(-c3ccc(C(C)(C)C)cc3)cc21` ?
Ans: > 100 µM

Taken from PubChem BioAssay (NCI).
